// data source = PubChem BioAssay (NCATS)

# method_notes: Confirmatory qHTS for small molecule stabilizers of the endoplasmic reticulum resident proteome: Secreted ER Calcium Modulated Protein (SERCaMP) assay (AID 1508628); further: nearly all actives have a fitted effect of over 40% in size
# condition_summary: SERCaMP secreted luciferase ER calcium/proteostasis reporter; series mostly up to 76.3 µM
Inconclusive results are not listed. Calls of active or inactive are those of the source. The call rests on the fitted dose curve; in most records, active means well fitted inhibition curve with a large enough effect; inconclusive means small, poorly fitted or top-dose-only effect; inactive means no such curve, though single readings can be large or run the other way.
Outcomes: active, inactive

                                   compound     label
0  CCN(CC)CCO[C@H]1CC[C@@]2(C)C(=CC[C@@H]3[C@H]2CC[C@]2(C)C(=O)CC[C@H]32)C1    active
1  Oc1ccc2c3c1O[C@H]1c4c(c5ccccc5n4Cc4ccccc4)C[C@]4(O)[C@H](C2)N(CC2CC2)CC[C@@]314  inactive
2                  NC(N)=NCCCCCCCCCCN=C(N)N  inactive
3  CC(C)(O)C1O[C@H]2CC[C@@]3(C)[C@@](O)(CC[C@H]4Cc5c([nH]c6ccccc56)[C@@]43C)C2=CC1=O (stereo partly drawn)    active
4  O[C@@H]1[C@H](O)[C@H]2[C@@H](O)CCN2C[C@@H]1O  inactive
5  CC(C)(O)[C@H]1O[C@@H]2CC[C@]3(C)[C@@]4(C)c5[nH]c6ccccc6c5C[C@@H]4CC[C@]3(O)C2=CC1=O    active
6  C[C@@H](C(=O)OC1C[C@H]2CC[C@@H](C1)N2C)c1ccc(Br)cc1 (stereo partly drawn)    active
7  CN1C2CCC1CC(OC(=O)C1CCC(C(=O)OC3CC4CCC(C3)N4C)(c3ccccc3)c3ccccc31)C2 (stereo not drawn)    active

* * *

# System: SKOV3
# method_notes: Primary qHTS to identify gynecologic anti-cancer compounds using libraries of approved drugs and bioactive compounds (AID 1345084); further: nearly all actives have a fitted effect of over 55% in size
# condition_summary: Gynecologic cancer cell panel viability, ATPlite luminescence, 48 h; series mostly up to 57.5 µM
Inconclusive results are not listed. The source made the active and inactive calls. Calls come from the whole dose curve; as a rule, active = well fitted cell-killing curve with a large enough effect; inconclusive = small, poorly fitted or top-dose-only effect, or effect the other way; inactive = flat fitted curve, though single readings scatter.

compound	target	outcome
C=C(CO)C(=O)O[C@H]1CC(=C)[C@@H]2C[C@H](O)C(=C)[C@@H]2[C@H]2OC(=O)C(=C)[C@@H]21	SKOV3	inactive
N#CC(O[C@@H]1O[C@H](CO)[C@@H](O)[C@H](O)[C@H]1O)c1ccccc1 (some centres undefined)	SKOV3	inactive
O=C(N[C@H]1CN2CCC1CC2)c1cc2cccc(Cl)c2s1	SKOV3	inactive
CC(=O)O[C@H]1C(=O)[C@]2(C)C(O)C[C@H]3OC[C@@]3(OC(C)=O)[C@H]2[C@H](OC(=O)c2ccccc2)[C@]2(O)C[C@H](O)C(C)=C1C2(C)C (some centres undefined)	SKOV3	inactive

* * *

# method_notes: Cytotoxicity counterscreen for inhibitors of SARS-CoV-2 cell entry (AID 1645845); further: nearly all actives have a fitted effect of over 50% in size
# condition_summary: cell viability (SARS-CoV-2 entry assay cells); series mostly up to 57.1 µM
Results filed as inconclusive are left out. Activity calls are given as the source filed them. The call rests on the fitted dose curve.
Outcomes: True (active), False (inactive)

compound	label
C[C@@H]1CN(Cc2ccc(F)cc2)CCN1C(=O)COc1ccc(Cl)cc1NC(N)=O	True
CCCCCNC(=O)N1CCC(CN(Cc2ccc(Cl)cc2)Cc2ccc([N+](=O)[O-])s2)C1 (centres undefined)	False
Cn1cc(-c2ccc3ncc(Cc4ccc5ncccc5c4)n3n2)cn1	False
O=C(NC1CCOCC1)c1ccc(-c2cc(-c3cn[nH]c3-c3ccccn3)ccn2)cc1	False
CCOC(=O)[C@H]1O[C@@H]1C(=O)N[C@@H](CC(C)C)C(=O)NCCC(C)C	False
CC(C)=CCN1CC[C@]2(C)c3cc(O)ccc3C[C@H]1[C@H]2C	False
CC(=O)N1N=C(c2ccc(N)cc2)c2cc3c(cc2C[C@H]1C)OCO3	False
CC(=O)[C@@]1(O)CC[C@H]2[C@@H]3CCC4=CC(=O)CC[C@]4(C)C3(F)[C@@H](O)C[C@@]21C (some centres undefined)	False
NC(=O)c1ncn([C@@H]2O[C@H](CO)[C@@H](O)[C@H]2O)n1	False
C[C@H](NC(=O)Cc1cc(F)cc(F)c1)C(=O)N[C@H](C(=O)OC(C)(C)C)c1ccccc1	False
COc1ccc(-c2cc3nccn3c(Nc3ncccc3C(N)=O)n2)cc1OC	False
NCCCNCCCCNC(=O)C(O)NC(=O)CCCCCCN=C(N)N (centres undefined)	False
C=CC(=O)Nc1cccc(Sc2nc(Nc3ccc(N4CCN(C)CC4)cc3)ncc2Cl)c1	True
CN1CCc2c(n(Cc3ccc(C(=O)NO)cc3)c3ccccc23)C1	True
CCNC(=O)CCC/C=C\C[C@@H]1[C@@H](/C=C/C(O)CCc2ccccc2)[C@@H](O)C[C@@H]1O (some centres undefined)	False
Cc1c(NC(=O)c2ccc(C(C)(C)C)cc2)cccc1-c1cn(C)c(=O)c(Nc2ccc(C(=O)N3CCOCC3)cc2)n1	False
O=[N+]([O-])c1cn2c(n1)OC[C@@H](OCc1ccc(OC(F)(F)F)cc1)C2	False
O=C1CCC(C(=O)O)N1 (centres undefined)	False
CC(=O)O[C@H]1C(=O)[C@@]2(C)C([C@H](OC(=O)c3ccccc3)[C@]3(O)C[C@H](OC(=O)[C@H](O)[C@@H](NC(=O)c4ccccc4)c4ccccc4)C(C)=C1C3(C)C)[C@]1(OC(C)=O)CO[C@@H]1C[C@@H]2O (some centres undefined)	False

* * *

# method_notes: qHTS for Inhibitors of the Functional Ribonucleoprotein Complex (vRNP) of Lassa (LASV) Arenavirus: Viability assay - alamar blue signal for LASV Primary Screen (AID 1347083); further: nearly all actives have a fitted effect of over 80% in size
# condition_summary: cell viability, alamar blue fluorescence (LASV minigenome counter-screen); series mostly up to 57.5 µM
Inconclusive results are not listed. Calls of active or inactive are those of the source. Calls follow the shape of the full dose curve; tested in HEK293 reporter line.
Outcomes: t for active, f for inactive

compound	label
COc1ccc(C(=O)NCc2cccnc2)cc1C(=O)NCc1cccnc1	f
O=c1[nH]c(O)c(/C=C2\C=Nc3ccccc32)[nH]1	f
Cc1nc(N=Nc2ccc(C(=O)O)cc2)c(COP(=O)(O)O)c(C=O)c1O	f
O=S(=O)(O)c1ccc2cc(N=Nc3cc(S(=O)(=O)O)c4cccnc4c3O)ccc2c1	f
COCCCCC(=NOCCN)c1ccc(C(F)(F)F)cc1	t
CCOC(=O)[C@H](CCc1ccccc1)N[C@@H](C)C(=O)N1[C@@H](C(=O)O)C[C@H]2CCC[C@@H]21	f
CC(=O)C1CCC2C3CCC4=CC(=O)C=CC4(C)C3C(=O)CC12C (stereo not drawn)	f
CCc1cnn2c(NCc3ccc[n+]([O-])c3)cc(N3CCCC[C@@H]3CCO)nc12	t
COC(=O)C1=COC(O[C@H]2OC(CO)[C@H](O)C(O)C2O)[C@H]2C1C(=O)C[C@@H]2C (stereo partly drawn)	f
COc1ccccc1N1CCN(CCCNc2c(C)c(=O)n(C)c(=O)n2C)CC1	f
C[C@@H]1[C@H]2[C@@H](O[C@@H]3O[C@H](CO)[C@@H](O)[C@H](O)[C@H]3O)OC=C(C(=O)O)[C@H]2C[C@@H]1O	f
CON(C)C(=O)N1N=C(c2cc(F)ccc2F)S[C@]1(CCCN)c1ccccc1	f
COC(=O)C1=CO[C@@H](C)[C@@H]2CN3CC[C@@]4(C(=O)Nc5ccccc54)[C@@H]3C[C@H]12	f
Cc1cccc(-c2[nH]c(C(C)(C)C)nc2-c2ccc3c(c2)OCO3)n1	t
COc1cc2ncn(-c3cc(OCc4ccccc4S(C)(=O)=O)c(C#N)s3)c2cc1OC	t
COc1ccc(CC(C)N)cc1 (stereo not drawn)	f
CC(=O)/C=C/C1C(C)=CCCC1(C)C (stereo not drawn)	f
COC(=O)C1C2CC3c4[nH]c5cc(OC)ccc5c4CCN3CC2CC(O)C1OC (stereo not drawn)	f
C[C@@H](Cc1cc2c(c(C(N)=O)c1)N(CCCO)CC2)NCCOc1ccccc1OCC(F)(F)F	f
CC(C)(C=O)Cc1cc(C(C)(C)C)c(O)c(C(C)(C)C)c1	f
CC1NC(C(=O)O)Cc2c1[nH]c1ccccc21 (stereo not drawn)	f
COc1cc(OC)c2c(-c3ccccc3)cc(=O)oc2c1	f
C[C@@H](NC(=O)/C(C#N)=C/c1ccc(O)c(O)c1)c1ccccc1	f
C=C[C@H]1CN2CC[C@@H]1C[C@@H]2[C@@H](O)c1ccnc2ccc(OC)cc12	f
O=C(CN1C(=O)C2(CCCC2)NC[C@H]1c1cc(F)cc(F)c1)Nc1ccc2c(c1)C[C@@]1(C2)C(=O)Nc2ncccc21	f
COC(=O)/C=C\C(=O)O	f
COC1C(O)C(O)C(O)C(O)C1O (stereo not drawn)	f
C#CCn1c(=O)c2c(ncn2C)n(C)c1=O	f
CN(C)c1nc(Cc2ccc(NC(=O)c3ccc4ccccc4c3)cc2)nc(Cl)c1CC(=O)O	f
COc1cc(C)ccc1O	f
NC1CCC(Nc2nc(Nc3ccc(C(=O)N4CCCCC4)cc3)c3ncn(-c4cccc(F)c4)c3n2)CC1 (stereo not drawn)	f
O=C(/C=C/c1ccc(O)cc1)OC[C@H]1O[C@@H](Oc2c(-c3ccc(O)cc3)oc3cc(O)cc(O)c3c2=O)[C@H](O)[C@@H](O)[C@@H]1O	f
CC(=O)OCC(=O)[C@@]12OC(C)(C)O[C@H]1C[C@H]1[C@@H]3C[C@H](F)C4=CC(=O)C=C[C@]4(C)[C@@]3(F)[C@@H](O)C[C@@]12C	f
CO[C@H]1/C=C\O[C@@]2(C)Oc3c(C)c(O)c4c(O)c(c5c(nc6cc(C)ccn65)c4c3C2=O)NC(=O)C(C)=CC=C[C@H](C)[C@H](O)[C@@H](C)[C@@H](O)[C@@H](C)[C@H](OC(C)=O)[C@H]1C	f
CC1(C)C=Cc2c(ccc(C(=O)/C=C/c3ccccc3)c2O)O1	f
COc1ccc(-c2coc3cc(OC(C)=O)c(OC)cc3c2=O)cc1	f
CC(=O)O[C@H]1C[C@@]2(O)[C@@H](OC(=O)c3ccccc3)C3[C@@](C)([C@@H](O)C[C@H]4OC[C@@]34OC(C)=O)[C@@H](O)[C@H](OC(C)=O)C(=C1C)C2(C)C (stereo partly drawn)	f
OC(CC(O)c1ccccc1)c1ccccc1 (stereo not drawn)	f
